- targetOrTestSystem: DGKα (Homo sapiens (Human))
- Sequence (P23743 other isoform, or with tags, fused parts or gaps): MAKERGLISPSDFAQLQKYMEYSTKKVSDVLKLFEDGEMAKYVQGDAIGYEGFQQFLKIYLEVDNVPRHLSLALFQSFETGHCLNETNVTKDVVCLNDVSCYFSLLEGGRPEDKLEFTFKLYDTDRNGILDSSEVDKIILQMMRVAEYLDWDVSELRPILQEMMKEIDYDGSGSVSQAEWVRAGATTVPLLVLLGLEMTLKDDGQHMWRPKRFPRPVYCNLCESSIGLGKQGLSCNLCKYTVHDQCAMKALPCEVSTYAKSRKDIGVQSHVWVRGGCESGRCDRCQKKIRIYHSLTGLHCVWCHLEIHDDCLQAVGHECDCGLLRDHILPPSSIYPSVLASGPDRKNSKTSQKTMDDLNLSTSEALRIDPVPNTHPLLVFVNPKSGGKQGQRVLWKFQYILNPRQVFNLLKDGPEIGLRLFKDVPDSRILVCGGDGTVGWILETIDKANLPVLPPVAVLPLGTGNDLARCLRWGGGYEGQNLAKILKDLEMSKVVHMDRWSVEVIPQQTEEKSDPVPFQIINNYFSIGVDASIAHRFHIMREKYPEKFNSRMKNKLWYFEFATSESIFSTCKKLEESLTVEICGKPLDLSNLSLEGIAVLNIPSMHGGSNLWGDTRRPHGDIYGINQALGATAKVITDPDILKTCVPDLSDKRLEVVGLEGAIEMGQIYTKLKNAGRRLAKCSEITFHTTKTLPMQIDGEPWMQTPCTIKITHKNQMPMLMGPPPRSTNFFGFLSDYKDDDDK
- protocol: Human DGKα kinase activity inhibition assay (ADP-Glo)
- appliedConditions: recombinant full-length human DGKα, 55 μM ATP, 7 μM 1,2-dioleoyl-sn-glycerol, read-out: IC50 values of examples in in vitro human DGKa kinase activity inhibition assays
// reported IC50 per item
Respond with a number, then the unit of measure.

Cc1ccc2oc(C3CCN(c4c(C(N)=O)c(=O)n(C)c5ccc(C#N)cc45)CC3)nc2c1 | 3.1 nM
Cn1c(=O)c(C#N)c(N2CCC(c3ccccc3)CC2)c2ccc(OC3CC3)cc21 | 49 nM
Cn1c(=O)c(C#N)c(N2CCC(c3ccc(C#N)cc3)CC2)c2ccccc21 | 54 nM
CC1Cc2cc(C3CCN(c4c(C(N)=O)c(=O)n(C)c5ccccc45)CC3)ccc2O1 (centres unmarked) | 0.5 nM
CCCOc1ccc2c(N3CCC(c4nc5ccccc5s4)CC3)c(C#N)c(=O)n(C)c2c1 | 72 nM

Could you tell me which IC50 is on file for Cc1nc2ccc(C3CCN(c4c(C#N)c(=O)n(C)c5ccccc45)CC3)cc2s1 ?
4.8 nM

Could you tell me which IC50 is on file for Cn1c(=O)c(C#N)c(N2CCC(c3ccc(C(F)(F)F)cc3)CC2)c2ccccc21 ?
37 nM

Could you tell me which IC50 is on file for COc1ccc2c(c1)c(N1CCC(c3nc(-c4ccccc4C)no3)CC1)c(C#N)c(=O)n2C ?
31 nM
